This collection of values is drawn from patent US20120129843A1.

# System tested: proMMP13(1-268) (SEQ ID NO:7) (Homo sapiens)
# Construct: 6xHis (C); made in house; host or cells: HEK293 (transient, secreted)
# Assay summary: ThermoFluor binding assay with proMMP13(1-268)
Measured log10(Kd) of individual entries
Scale: decimal log of Kd, Kd in µM.

Example cases with answers are listed next.
>  <Sample smiles>
CC(C)Oc1ccc(S(N)(=O)=O)cc1Nc1nc(-c2cccnc2)cs1

>  <log10(Kd)>
0.08

$$$$
>  <Sample smiles>
COc1ccc(C(N)=O)cc1Nc1nc(-c2cccnc2)cs1

>  <log10(Kd)>
1.08

$$$$
>  <Sample smiles>
CC(C)Oc1ccc(C(N)=O)cc1Nc1nc(-c2ccc(Cl)nc2)cs1

>  <log10(Kd)>
-0.60

$$$$
>  <Sample smiles>
CC(C)Oc1ccc(C(N)=O)cc1Nc1nc(-c2cccnc2)cs1

>  <log10(Kd)>
-0.51

$$$$
>  <Sample smiles>
CC(C)Oc1ccc(C(=O)O)cc1Nc1nc(-c2cccnc2)cs1

>  <log10(Kd)>
0.18

$$$$
>  <Sample smiles>
Cc1cc(C)c(-c2csc(Nc3cc(C(N)=O)ccc3OC(C)C)n2)c(C)n1

>  <log10(Kd)>
0.79

$$$$
>  <Sample smiles>
CCOc1ccc(C(N)=O)cc1Nc1nc(-c2cccnc2)cs1

>  <log10(Kd)>
0.41

$$$$
>  <Sample smiles>
CC(C)Oc1ccc(C(N)=O)cc1Nc1nc(-c2ccc(N3CCN(C)CC3)nc2)cs1

>  <log10(Kd)>
-0.55

$$$$
>  <Sample smiles>
COc1ccc(C#N)cc1Nc1nc(-c2cccnc2)cs1

>  <log10(Kd)>
1.26

$$$$

API: the following record is the query input.
// field: log10(Kd); key: "COc1ccc([N+](=O)[O-])cc1Nc1nc(-c2cccnc2)cs1" ; value = 1.89

----------
# System tested: proMMP9(67-444;ΔFnII) (SEQ ID NO:5) (Homo sapiens, UniProt P14780, DEL216-390)
# Construct: start methionine (N); made in house; host or cells: E. coli BL21(DE3) RIL
# Sequence (P14780 with tags, fused parts or gaps DEL216-390): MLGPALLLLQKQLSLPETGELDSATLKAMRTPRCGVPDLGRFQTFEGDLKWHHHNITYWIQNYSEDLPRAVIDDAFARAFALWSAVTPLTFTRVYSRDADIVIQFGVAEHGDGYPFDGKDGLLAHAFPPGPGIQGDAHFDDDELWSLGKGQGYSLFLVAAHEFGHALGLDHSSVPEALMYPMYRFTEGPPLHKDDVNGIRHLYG
# Assay summary: ThermoFluor binding assay with proMMP9(67-444;ΔFnII)
Measured pKd of individual entries
pKd is a log-scale quantity: -log10 of the concentration expressed in molar.

>  <Sample smiles>
CC(C)Oc1ccc(S(N)(=O)=O)cc1Nc1nc(-c2ccc(CO)nc2)cs1

>  <Reported measurement>
5.82

$$$$

// field: pKd; key: "CC(C)Oc1ccc(C(N)=O)cc1Nc1nc(-c2cccnc2)cs1" ; value = 6.00

// field: pKd; key: "COCCCc1ccc(-c2csc(Nc3cc(S(N)(=O)=O)ccc3OC(C)C)n2)cn1" ; value = 5.89

// field: pKd; key: "CC(C)Oc1ccc(S(N)(=O)=O)cc1Nc1nc(-c2ccc(NCCCn3ccnc3)nc2)cs1" ; value = 6.55

// field: pKd; key: "CC(C)Oc1ccc(S(N)(=O)=O)cc1Nc1nc(-c2ccc(C(=O)O)nc2)cs1" ; value = 5.43

// field: pKd; key: "CC(C)Oc1ccc(S(N)(=O)=O)cc1Nc1nc(-c2ccc(NCCN(C)C)nc2)cs1" ; value = 6.17

// field: pKd; key: "CC(C)Oc1ccc(C#N)cc1Nc1nc(-c2cccnc2)cs1" ; value = 5.54
